# ASSAYED SYSTEM: Somatostatin receptor type 4 (Homo sapiens)
# PROTOCOL NOTES: Agonist activity at recombinant human somatostatin receptor 4 at 10 uM by GTPgamma[35S] binding-based assay relative to agonist
# Type: functional
QUANTITY: Activity (%)
# value in %; strip the unit string

Query: Find the measured Activity of `CN(CCCNC(=O)c1cccc(Br)c1)Cc1ccccc1` with Somatostatin receptor type 4 (Homo sapiens) as test system.
Result: -2

---

# ASSAYED SYSTEM: Endothelin-1 receptor (Homo sapiens)
# Sequence (whole entry): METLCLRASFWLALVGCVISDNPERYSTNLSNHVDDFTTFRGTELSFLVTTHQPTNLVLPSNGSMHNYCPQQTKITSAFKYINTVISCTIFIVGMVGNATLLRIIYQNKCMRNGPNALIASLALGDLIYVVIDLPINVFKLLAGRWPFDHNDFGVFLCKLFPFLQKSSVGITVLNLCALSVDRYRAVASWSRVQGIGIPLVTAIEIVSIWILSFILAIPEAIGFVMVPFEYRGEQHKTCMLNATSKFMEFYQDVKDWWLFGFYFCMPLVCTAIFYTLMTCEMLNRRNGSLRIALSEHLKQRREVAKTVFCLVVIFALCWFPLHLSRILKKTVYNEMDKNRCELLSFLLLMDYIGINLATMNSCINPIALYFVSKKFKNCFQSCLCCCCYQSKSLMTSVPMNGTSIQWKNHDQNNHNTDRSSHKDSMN
# PROTOCOL NOTES: Agonist activity at recombinant human ETA receptor at 10 uM by aequorin reporter based assay relative to agonist
# Format: functional
Entries and their measured Activity follow.
# value in %; strip the unit string

// solved cases for Activity follow
{"columns": ["COMPOUND STRUCTURE", "ASSAYED SYSTEM", "Activity (%)"],
 "data": [
  ["CN(CCCNC(=O)c1ccc(Cl)cc1)CCc1ccccc1", "Endothelin-1 receptor (Homo sapiens)", -1],
  ["CCCc1ccc(C(=O)NCCCN(C)Cc2ccccc2)cc1", "Endothelin-1 receptor (Homo sapiens)", -1],
  ["CN(CCCNC(=O)c1ccc(C(F)(F)F)cc1)Cc1ccccc1", "Endothelin-1 receptor (Homo sapiens)", -1],
  ["COc1ccc(C(=O)NCCCN(C)Cc2ccccc2)cc1", "Endothelin-1 receptor (Homo sapiens)", 0]
]}

Query: Find the measured Activity of `CN(CCCNC(=O)c1cccc(Br)c1)Cc1ccccc1` with Endothelin-1 receptor (Homo sapiens) as test system.
Result: -1

Query: Find the measured Activity of `CN(CCNC(=O)c1ccc([N+](=O)[O-])cc1)Cc1ccccc1` with Endothelin-1 receptor (Homo sapiens) as test system.
Result: -1

---

Entries and their measured Activity follow.
# ASSAYED SYSTEM: 5-hydroxytryptamine receptor 6 (Homo sapiens) (UniProt P50406)
# Sequence (P50406 whole entry): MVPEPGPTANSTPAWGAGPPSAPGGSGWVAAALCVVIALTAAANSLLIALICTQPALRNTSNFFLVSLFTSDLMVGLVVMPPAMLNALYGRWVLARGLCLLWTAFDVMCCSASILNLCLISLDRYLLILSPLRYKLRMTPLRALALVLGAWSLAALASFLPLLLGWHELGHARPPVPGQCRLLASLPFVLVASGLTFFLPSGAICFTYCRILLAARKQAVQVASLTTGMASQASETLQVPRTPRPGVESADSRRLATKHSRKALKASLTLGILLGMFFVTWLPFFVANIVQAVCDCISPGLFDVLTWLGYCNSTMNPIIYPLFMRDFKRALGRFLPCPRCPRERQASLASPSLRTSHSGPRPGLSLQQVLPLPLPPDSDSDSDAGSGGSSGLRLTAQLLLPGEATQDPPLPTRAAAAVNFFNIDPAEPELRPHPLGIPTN
# PROTOCOL NOTES: Agonist activity at recombinant human 5-HT6R assessed as induction of cAMP levels at 10 uM by HTRF assay relative to agonist
# Format: functional
# value in %; strip the unit string

// solved cases for Activity follow
{"columns": ["COMPOUND STRUCTURE", "OUTPUT UNIT", "Activity"],
 "data": [
  ["COc1ccc(C(=O)NCCCN(C)Cc2ccccc2)cc1", "%", -4],
  ["CN(CCCNC(=O)c1ccc(Br)cc1)Cc1ccccc1", "%", 4],
  ["CN(CCCNC(=O)c1ccc(C(F)(F)F)cc1)Cc1ccccc1", "%", 28],
  ["CN(CCNC(=O)c1ccc(Cl)cc1)Cc1ccccc1", "%", 27],
  ["CN(CCCNC(=O)c1ccc(Cl)cc1)CCc1ccccc1", "%", 16],
  ["CCCc1ccc(C(=O)NCCCN(C)Cc2ccccc2)cc1", "%", 35]
]}

Query: Give Activity for `CN(CCNC(=O)c1ccc(C#N)cc1)Cc1ccccc1`
Result: -9

Query: Give Activity for `COc1cccc(C(=O)NCCCN(C)Cc2ccccc2)c1`
Result: -2

Query: Give Activity for `CN(CCCNC(=O)c1cccc(Br)c1)Cc1ccccc1`
Result: 32

Query: Give Activity for `CN(CCNC(=O)c1ccc([N+](=O)[O-])cc1)Cc1ccccc1`
Result: -4

Query: Give Activity for `CN(CCCNC(=O)c1ccc(Cl)cc1)Cc1ccccc1`
Result: 14

Query: Give Activity for `CN(CCCNC(=O)c1ccc([N+](=O)[O-])cc1)Cc1ccccc1`
Result: 34

---

# ASSAYED SYSTEM: 5-hydroxytryptamine receptor 2A (Homo sapiens) (UniProt P28223)
# Sequence (P28223 whole entry): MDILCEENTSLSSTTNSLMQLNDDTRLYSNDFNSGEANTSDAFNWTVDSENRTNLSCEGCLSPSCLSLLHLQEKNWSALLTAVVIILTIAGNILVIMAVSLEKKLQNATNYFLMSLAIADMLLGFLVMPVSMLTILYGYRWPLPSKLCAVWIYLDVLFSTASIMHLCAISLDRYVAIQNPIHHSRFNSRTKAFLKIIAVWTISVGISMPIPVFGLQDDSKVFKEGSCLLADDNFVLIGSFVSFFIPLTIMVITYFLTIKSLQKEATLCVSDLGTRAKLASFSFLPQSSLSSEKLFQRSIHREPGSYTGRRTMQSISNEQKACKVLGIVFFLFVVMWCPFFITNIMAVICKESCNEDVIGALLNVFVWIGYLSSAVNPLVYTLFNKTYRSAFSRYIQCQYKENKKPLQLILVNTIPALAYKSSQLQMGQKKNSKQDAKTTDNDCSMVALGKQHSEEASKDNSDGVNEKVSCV
# PROTOCOL NOTES: Agonist activity at recombinant human 5-HT2A at 10 uM by aequorin reporter based assay relative to agonist
# Format: functional
Entries and their measured Activity follow.
# value in %; strip the unit string

// solved cases for Activity follow
{"columns": ["COMPOUND STRUCTURE", "ASSAYED SYSTEM", "OUTPUT UNIT", "Activity"],
 "data": [
  ["CN(CCCNC(=O)c1ccc(C(F)(F)F)cc1)Cc1ccccc1", "5-hydroxytryptamine receptor 2A (Homo sapiens) (UniProt P28223)", "%", 1],
  ["CN(CCCNC(=O)c1ccc(Cl)cc1)CCc1ccccc1", "5-hydroxytryptamine receptor 2A (Homo sapiens) (UniProt P28223)", "%", 18],
  ["CN(CCCNC(=O)c1ccc(Br)cc1)Cc1ccccc1", "5-hydroxytryptamine receptor 2A (Homo sapiens) (UniProt P28223)", "%", 1]
]}

Query: Give Activity for `CN(CCNC(=O)c1ccc(Cl)cc1)Cc1ccccc1`
Result: 16

Query: Give Activity for `COc1ccc(C(=O)NCCCN(C)Cc2ccccc2)cc1`
Result: 0

Query: Give Activity for `CN(CCNC(=O)c1ccc([N+](=O)[O-])cc1)Cc1ccccc1`
Result: 0

---

Entries and their measured inhibition follow.
# ASSAYED SYSTEM: Beta-2 adrenergic receptor (Homo sapiens)
# PROTOCOL NOTES: Antagonist activity at recombinant human beta-2 adrenergic receptor assessed as inhibition of agonist-induced cAMP induction at 10 uM by HTRF assay
# Assay type: functional
# value in %; strip the unit string

Query: Give inhibition for `CN(CCCNC(=O)c1ccc(Cl)cc1)Cc1ccccc1`
Result: 0

Query: Give inhibition for `CN(CCCNC(=O)c1ccc([N+](=O)[O-])cc1)Cc1ccccc1`
Result: 1

Query: Give inhibition for `CN(CCCNC(=O)c1ccc(C(F)(F)F)cc1)Cc1ccccc1`
Result: 4

Query: Give inhibition for `CN(CCNC(=O)c1ccc(Cl)cc1)Cc1ccccc1`
Result: 1

Query: Give inhibition for `CCCc1ccc(C(=O)NCCCN(C)Cc2ccccc2)cc1`
Result: 8

Query: Give inhibition for `CN(CCCNC(=O)c1ccc(Br)cc1)Cc1ccccc1`
Result: -1

---

# ASSAYED SYSTEM: Alpha-1A adrenergic receptor (Homo sapiens) (UniProt P35348)
# Sequence (P35348 whole entry): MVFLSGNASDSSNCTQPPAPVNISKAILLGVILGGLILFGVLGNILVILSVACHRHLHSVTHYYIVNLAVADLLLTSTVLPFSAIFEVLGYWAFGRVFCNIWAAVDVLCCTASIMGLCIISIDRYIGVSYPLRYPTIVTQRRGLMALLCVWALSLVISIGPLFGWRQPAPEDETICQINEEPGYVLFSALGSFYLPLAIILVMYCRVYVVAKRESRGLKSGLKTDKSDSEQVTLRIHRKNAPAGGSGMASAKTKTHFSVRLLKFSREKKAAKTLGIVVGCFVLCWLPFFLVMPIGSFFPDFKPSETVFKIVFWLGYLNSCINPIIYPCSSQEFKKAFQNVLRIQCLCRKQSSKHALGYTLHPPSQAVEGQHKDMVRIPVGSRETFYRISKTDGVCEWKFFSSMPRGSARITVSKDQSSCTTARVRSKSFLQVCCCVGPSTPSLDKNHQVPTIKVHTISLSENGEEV
# PROTOCOL NOTES: Antagonist activity at recombinant human alpha-1a adrenergic receptor assessed as inhibition of agonist-induced […] reporter based assay
# Type: functional
Entry flag: condition met if inhibition reaches 90%; condition not met if it does not.

{"columns": ["COMPOUND STRUCTURE", "CLASS"],
 "data": [
  ["CN(CCCNC(=O)c1ccc(C(F)(F)F)cc1)Cc1ccccc1", "condition not met"],
  ["COc1cccc(C(=O)NCCCN(C)Cc2ccccc2)c1", "condition not met"],
  ["CCCc1ccc(C(=O)NCCCN(C)Cc2ccccc2)cc1", "condition met"],
  ["CN(CCCNC(=O)c1ccc(Br)cc1)Cc1ccccc1", "condition met"],
  ["CN(CCCNC(=O)c1cccc(Br)c1)Cc1ccccc1", "condition met"]
]}

Query compound follows.
Query: Is inhibition at least 90%? Consider `COc1ccc(C(=O)NCCCN(C)Cc2ccccc2)cc1`
Result: condition not met

---

# ASSAYED SYSTEM: Adenosine receptor A3 (Homo sapiens) (UniProt P0DMS8)
# Sequence (whole entry): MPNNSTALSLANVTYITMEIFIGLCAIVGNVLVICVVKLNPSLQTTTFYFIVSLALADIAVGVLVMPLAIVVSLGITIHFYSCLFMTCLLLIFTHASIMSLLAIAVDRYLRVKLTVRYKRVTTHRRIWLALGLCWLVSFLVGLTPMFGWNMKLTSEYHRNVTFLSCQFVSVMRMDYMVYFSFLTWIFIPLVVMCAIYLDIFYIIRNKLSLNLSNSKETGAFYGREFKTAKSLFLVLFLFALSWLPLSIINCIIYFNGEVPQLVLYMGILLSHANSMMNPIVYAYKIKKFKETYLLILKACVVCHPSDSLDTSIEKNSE
# PROTOCOL NOTES: Agonist activity at recombinant human adenosine A3 receptor […] at 10 uM by HTRF assay relative to agonist
# Assay type: functional
QUANTITY: Activity (%)
# value in %; strip the unit string

{"columns": ["COMPOUND STRUCTURE", "QUANTITY", "OUTPUT UNIT", "VALUE REPORTED"],
 "data": [
  ["CCCc1ccc(C(=O)NCCCN(C)Cc2ccccc2)cc1", "Activity", "%", 3]
]}

Query: Give Activity for `CN(CCNC(=O)c1ccc(Cl)cc1)Cc1ccccc1`
Result: -2

Query: Give Activity for `CN(CCCNC(=O)c1ccc(Cl)cc1)Cc1ccccc1`
Result: -4

Query: Give Activity for `COc1cccc(C(=O)NCCCN(C)Cc2ccccc2)c1`
Result: -3

Query: Give Activity for `CN(CCNC(=O)c1ccc(C#N)cc1)Cc1ccccc1`
Result: 0

Query: Give Activity for `CN(CCCNC(=O)c1cccc(Br)c1)Cc1ccccc1`
Result: -3
